# Test system: CP201
# Experiment: qHTS profiling for inhibitors of Plasmodium falciparum proliferation (AID 504749); note: nearly all actives have a fitted effect of over 60% in size
# Test Context: P. falciparum in erythrocytes, SYBR Green DNA, 72 h; series mostly up to 12.8 µM
Records with an inconclusive call do not appear. The source made the active and inactive calls. Calls come from the whole dose curve; as a rule, active = well fitted inhibition curve with a large enough effect; inconclusive = small, poorly fitted or top-dose-only effect; inactive = flat fitted curve, though single readings scatter.
Please answer using one outcome listed in Y for active, N for inactive

Molecule	Assayed System	Class
CC[C@@H]1OC(=O)[C@H](C)[C@H](O[C@@H]2C[C@](C)(OC)[C@H](O)[C@H](C)O2)[C@H](C)[C@H](O[C@@H]2O[C@@H](C)C[C@@H](N(C)C)[C@@H]2O)[C@](C)(O)C[C@H](C)C(=NOCOCCOC)[C@H](C)[C@H](O)[C@]1(C)O	CP201	N

Request: Answer briefly: the call reported for `COc1cc(N[C@@H](C)CCCN)c2ncccc2c1` in this assay.
Result: Y

Request: Likewise for CC(=O)[C@]1(O)CCC2C3C=C(Cl)C4=CC(=O)C5CC5[C@@]4(C)C3CC[C@]21C (stereo partly specified) ?
Result: N

Request: Likewise for `NC(=O)N[C@H]1NC(=O)NC1=O` ?
Result: N

Request: Likewise for CC1(C)S[C@H]2C(NC(=O)[C@@H](N)c3ccc(O)cc3)C(=O)N2[C@@H]1C(=O)O (stereo partly specified) ?
Result: N

Request: Likewise for `C=CCOc1ccccc1OC[C@H](O)CNC(C)C` ?
Result: N

###

# Assayed System: Rap guanine nucleotide exchange factor 3 (Homo sapiens)
# Experiment: Confirmatory qHTS for antagonist of cAMP-regulated guanine nucleotide exchange factor 3 (EPAC1) (AID 1645880); note: nearly all actives have a fitted effect of over 55% in size
# Test Context: EPAC1 Rap1B-BODIPY-GDP exchange, fluorescence; series mostly up to 115 µM
# Excerpt: Assay Provider (PI): Xiaodong Cheng Ph.D. The University of Texas Medical Branch, […], TX MLPCN Grant: NS066510 In multi-cellular eukaryotic organisms, the effects of cAMP are transduced by two ubiquitously-expressed intracellular cAMP receptors, the classic protein kinase A/cAMP-dependent protein kinase (PKA/cAPK) and the more recently discovered exchange protein directly activated by cAMP/cAMP-regulated guanine nucleotide exchange factor (EPAC/cAMP-GEF). […]
Inconclusive results are not listed. Active and inactive are the calls of the source. Calls come from the whole dose curve; as a rule, active = well fitted inhibition curve with a large enough effect; inconclusive = small, poorly fitted or top-dose-only effect; inactive = no such curve, though single readings can be large or run the other way.
Please answer using one outcome listed in t for active, f for inactive

Compound	Assayed System	Class
CC(c1ccc(N(C)C)cc1)c1ccnc2ccccc12 (stereo unspecified)	Rap guanine nucleotide exchange factor 3 (Homo sapiens)	f

Request: Answer briefly: the call reported for `O=C(Cn1cnc2scc(-c3cccc([N+](=O)[O-])c3)c2c1=O)NCc1ccco1` in this assay.
Result: t

Request: Likewise for `CCOc1cccc(CC(=O)NCc2ccc3c(c2)CCN3C(C)=O)c1OCC` ?
Result: f

Request: Likewise for `O=S1(=O)CCO[C@H]2Cc3ccccc3[C@H]2N1Cc1ccc(Cl)cc1` ?
Result: f

###

# Assayed System: Rap guanine nucleotide exchange factor 3 (Homo sapiens)
# Experiment: Confirmatory qHTS for agonist of cAMP-regulated guanine nucleotide exchange factor 3 (EPAC1) (AID 1645881); note: nearly all actives have a fitted effect of over 75% in size;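 for activation: EPAC1 catalysed release of BODIPY-GDP from Rap1B seen as fluorescence loss; 100% = effect of cAMP agonist control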
# Test Context: EPAC1 Rap1B BODIPY-GDP exchange fluorescence; series mostly up to 154 µM
Results filed as inconclusive are left out. Calls of active or inactive are those of the source. The call rests on the fitted dose curve; in most records, active means well fitted activation curve with a large enough effect; inconclusive means small, poorly fitted or top-dose-only effect; inactive means no such curve, though single readings can be large or run the other way.
Please answer using one outcome listed in 1 (yes) = active, 0 (no) = inactive

Field: example entries. Status: answers known.
Molecule	Class
O=C(O)c1[nH]c2ccccc2c1C(c1cc(Br)ccc1O)c1c(C(=O)O)[nH]c2ccccc12	0 (no)
CN1/C(=C\C=C(/C#N)C(=O)Nc2ccccc2F)C(C)(C)c2ccccc21	1 (yes)
O=C1NC(=Nc2ccccc2Cl)S/C1=C\c1cccc([N+](=O)[O-])c1O	0 (no)
CC(=O)CCc1oc2ccc(C)cc2c1-c1ccccc1	0 (no)

Request: Answer briefly: the call reported for O=C(CN1Cc2ccccc2OC(c2ccsc2)C1)N1CCN(Cc2ccc3c(c2)OCO3)CC1 (configuration not stated) in this assay.
Result: 0 (no)

Request: Likewise for `O=C(CCCC(=O)Nc1cccnc1)Nc1cccnc1` ?
Result: 0 (no)

Request: Likewise for `O=c1cc(-c2ccccc2)nc2c(-c3ccccc3)c(C(F)(F)F)[nH]n12` ?
Result: 0 (no)

Request: Likewise for COc1ccc(C(NC(C)=O)c2cc(Cl)c3cccnc3c2O)cc1 (configuration not stated) ?
Result: 0 (no)

Request: Likewise for `COc1ccc(C(=O)c2ccc(Br)cc2)c2ccccc12` ?
Result: 0 (no)

Request: Likewise for `COCCn1c(SCC(=O)c2ccccc2)nc2cc(C(=O)NC3CCCC3)ccc2c1=O` ?
Result: 0 (no)

Taken from PubChem BioAssay (NCATS).
